Tgt: Rat RGMa-His (rat) (UniProt D4A188)
Protocol: BIAcore; Ab captured on CM5 chip via anti-hIgG Fc Ab, antigen injected; 1:1 Langmuir fit
Consider the following binders and their measured koff readings.
Response body: numeric value in s⁻¹, unit text excluded.

>  <Binder>
h5F9.AM9 (antibody, V domains shown, also called RGMA-h5F9AM.9; RGMA-h5F9pJP297/pJP 299 hIgG1/K mut) VH: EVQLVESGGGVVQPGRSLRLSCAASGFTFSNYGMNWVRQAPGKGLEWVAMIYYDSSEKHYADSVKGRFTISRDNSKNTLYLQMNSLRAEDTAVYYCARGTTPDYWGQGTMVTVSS VL: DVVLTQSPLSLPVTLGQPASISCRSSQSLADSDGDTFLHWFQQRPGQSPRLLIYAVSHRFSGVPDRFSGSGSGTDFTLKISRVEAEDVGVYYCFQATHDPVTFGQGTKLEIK

>  <Result unit>
s⁻¹

>  <koff>
0.00021

$$$$

Next up:
Query: Recorded koff for humanized antibody 5F9.23 (antibody, V domains shown, Humanized parental antibody; also called h5F9.23; H5F9.23*) VH: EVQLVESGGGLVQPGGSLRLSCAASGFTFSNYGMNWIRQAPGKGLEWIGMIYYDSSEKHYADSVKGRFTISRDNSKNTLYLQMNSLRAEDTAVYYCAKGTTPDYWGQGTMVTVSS VL: DVVLTQSPLSLPVTLGQPASISCRSSQSLEYSDGYTFLEWFQQRPGQSPRLLIYEVSNRFSGVPDRFSGSGSGTDFTLKISRVEAEDVGVYYCFQATHDPLTFGQGTKLEIKR , please?
Response: 0.0017

Where these numbers come from: patent EP4817631A2
